assayed-target: T1, Tau peptide Start 421 Stop 440
T1 peptide: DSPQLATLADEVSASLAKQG
assay: Pepscan ELISA on an array of linear 20-mer Tau 441 peptides
Design: unit not given here
Kindly supply the reported peptide ELISA signal (no name or unit printed) values for the records listed here.

binder PT69 monoclonal antibody (recombinant, mouse IgG2a/kappa) (antibody, V domains shown, also called PT69/PT87; PT69 (PT1B548)) VH: QVQLQQPGAELVKPGASVKMSCKASGYTFTNYWITWVKQRPGQGLEWIGDIYPGSGRTKSNEKFKNKATLTADTSSSTAYMQLSSLTSEDSAVYYCTRRWGLDYWGQGTTLTVSS VL: DIVITQDELSNPVTSGESVSISCRSNKSLLYKDGKTYLNWFLQRPGQSPQLLIYLMSTRASGVSDRFSGSGSGTDFTLEISRVKAEDVGVYYCQQLVDYPLTFGAGTKLELKR , peptide ELISA signal (no name or unit printed) observed: 2930

binder PT66 monoclonal antibody (recombinant, mouse IgG2a/kappa) (antibody, V domains shown, also called PT66 (PT1B545)) VH: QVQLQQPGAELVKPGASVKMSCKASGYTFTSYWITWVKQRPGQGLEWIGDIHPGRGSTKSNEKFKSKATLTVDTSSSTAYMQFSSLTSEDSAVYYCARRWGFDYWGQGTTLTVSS VL: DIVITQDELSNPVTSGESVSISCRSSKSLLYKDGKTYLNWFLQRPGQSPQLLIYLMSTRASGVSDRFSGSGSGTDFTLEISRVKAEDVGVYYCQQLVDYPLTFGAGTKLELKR , peptide ELISA signal (no name or unit printed) observed: 2930

binder PT53 monoclonal antibody (recombinant, mouse IgG2a/kappa) (antibody, V domains shown, also called PT50/PT53) VH: EVKLMESGGGLVQPGASLRLSCAASGFTFTDYYMSWVRQPPGKAPEWLALIRNKANGYTTKYAASVKGRFTISRDNSQNILYLQMNTLRAEDSATYYCVKAVWFAYWGQGTLVTVSA VL: DIVITQDELSNPVTSGESVSISCRSSKSLLYKDGKTYLNWFLQRPGQSPQLLIYLMSTRASGVSDRFSGSGSGTDFTLEISRVKAEDVGVYYCLQLVEYPYTFGGGTKLEIKR , peptide ELISA signal (no name or unit printed) observed: 2880

binder hTau60 monoclonal antibody (recombinant, mouse IgG2a/kappa) (antibody, V domains shown, also called hTau60 (PT1B469)) VH: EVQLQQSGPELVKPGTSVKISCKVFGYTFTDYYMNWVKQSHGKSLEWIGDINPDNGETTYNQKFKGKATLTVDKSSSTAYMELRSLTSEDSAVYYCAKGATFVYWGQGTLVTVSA VL: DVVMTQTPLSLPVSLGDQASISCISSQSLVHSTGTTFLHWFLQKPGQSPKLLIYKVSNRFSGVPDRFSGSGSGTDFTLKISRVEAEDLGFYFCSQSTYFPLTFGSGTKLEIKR , peptide ELISA signal (no name or unit printed) observed: 2910

binder PT81 monoclonal antibody (recombinant, mouse IgG2a/kappa) (antibody, V domains shown) VH: QVQLQQPGAELVRPGASVILSCKASGYTFTNSWIHWVKQRPGRVLEWIGRIDPNSGGTRYNENFKSKATLTVDKPSSTAYMQLSSLTSEDSAVYFCSRGVLHDYWGQGTTLTVSS VL: DIVITQDELSNPVTSGESVSISCRSSKSLLYKDGKTYLNWFLQRPGQSPQLLIYLMSTRASGVSDRFSVSGSGTDFTLEISRVQAEDVGVYYCQQLVEYPYTFGGGTKLEIKR , peptide ELISA signal (no name or unit printed) observed: 2900
